- method: Human HepG2 cell viability assay in 384 well format
- Format: toxicity, cell-based
- Set-up: dose 125 nL, time 70.5 hour; concentration not given beside the values
- stated-conditions: HepG2 cells, read-out: Inhibition
Catalogue of cytotoxicity at 70.5 h readings, one per entry.

compound | cytotoxicity at 70.5 h, %
COc1ccnc(NCC2CN(C3CC3)CCO2)n1 (configuration not stated) | 10.1
CC(c1nncn1C)n1cc(-c2cc(CN3CCCC3)cs2)nn1 (configuration not stated) | 15.8
CC1=N[C@@]2(CC[C@@H]3CN(Cc4ccccc4)C[C@@H]32)C(=O)N1CC1CC1 | -21.6
CC(C)Oc1cccc(C(=O)C2CCCN(S(=O)(=O)C(C)C)C2)c1 (configuration not stated) | -7.26
CCn1c(=O)c2sccc2n(CC(=O)Nc2cccc(Cl)c2)c1=O | 8.59
CC(C)CN1CC[C@H](c2nnc(COc3ccc(F)cc3)o2)C1 | -3.77
O=C(c1ccc(-c2ccccc2)[nH]c1=O)N1CCCn2ncnc21 | -9.78

* * *

- method: Human HepG2 cell viability assay in 384 well format
- Format: toxicity, cell-based
- Parameters: dose 125 nL, time 70.5 hour; concentration not given beside the values
- stated-conditions: HepG2 cells, read-out: Inhibition
Catalogue of cytotoxicity at 70.5 h readings, one per entry.
quantity-measured: cytotoxicity at 70.5 h (%)

compound | value-observed
O=C(NCCc1nccs1)N1CCC(n2cccc2)CC1 | -9.14
CCN1C(=O)CC[C@]12CC[C@@H](NC(=O)c1cc(C)on1)CC2 | -7.54
c1ccc(COCCN2CCc3[nH]cnc3C2c2ccco2)cc1 (stereo not given) | -4.41
CCCc1noc(CN2CCC(NC(=O)c3ccc(C)s3)CC2)n1 | -4.33
Cn1cc(C2COC3(CCN(C(=O)c4cnccn4)CC3)C2)cn1 (stereo not given) | -12.7
c1cnnc(N[C@@H]2CC[C@@H]3CN(Cc4ccc5cc[nH]c5c4)C[C@@H]32)c1 | -9.52
COc1ccc(-n2ncc3c2NC(=O)CSC3CC(C)C)cc1 (stereo not given) | -19.5
CC(C)NC(=O)[C@@]12CCO[C@@H]1CCN(Cc1ccco1)C2 | 1.53
CCCc1nc(C(=O)N2CCCn3nc(CCC(=O)O)cc3C2)cs1 | -9.99
CC(C)C(=O)N1CCN(Cc2csc(-c3ncccn3)n2)CC1 | -2.05
NCc1cc(-c2ccccc2)n2nccc2n1 | -10.1
CCN(CC)CC(=O)NCCc1csc(N2CCCC2)n1 | -3.59
COc1cc(C)c(CN2CCC3(CC2)[C@H](O)C[C@@H]3OCCN)cc1C | 28.1
c1cc(COC[C@@]23CCC[C@@H]2CN(C2CCOCC2)C3)ccn1 | -2.91
Cn1cnc(S(=O)(=O)N2CCOCC2)c1Cl | -3.62
Cc1cccnc1NCCNC(=O)C1CCN(C(=O)N(C)C)CC1 | 12.2
N[C@H]1c2ccccc2C[C@@H]1NC(=O)C1CCN(Cc2ccco2)CC1 | -11.4
CCn1ncc(NC(=O)CCn2ncc3c(Cl)cccc32)c1C | 7.52
COc1ccc(NC(=O)CNc2ccc(Br)cc2F)cc1 | -1.21
CSc1nc(N)c2c(n1)N=C1COC(O)=C1C2c1cccc(Cl)c1 (stereo not given) | 47.4
O=C(c1c2c(N3CCOCC3)ncnc2n2ccccc12)N1CCCC1 | -3.03
CN(C)S(=O)(=O)c1ccc2c(c1)N(Cc1nccn1C)CCC2 | -6.79
CC(C)n1cc(C(=O)NCCc2cn3ccsc3n2)cn1 | 13.8
CC(=O)NC[C@@H]1C=C(C)[C@H](CC(=O)NCCN(C)C)C[C@H]1C(C)C | 23.8
O=C1[C@H]2CN(CC3CCOCC3)C[C@H]2CN1c1ccsc1 | -1.42
CCn1c(-c2ccccc2)nn(CC(=O)NCCc2ccc(C)o2)c1=O | -0.836
Cc1cn[nH]c1C1CCCN1Cc1ccc(F)c(F)c1 (stereo not given) | -0.872
O=C(CCC(=O)Nc1nnc(C(F)(F)F)s1)NCC1CCCO1 (stereo not given) | -0.323
Cc1cnc(C(=O)N2CCc3c(nc(-c4ccncc4)[nH]c3=O)C2)cn1 | -3.01
Cn1cc(S(=O)(=O)Nc2c(F)cccc2N2CCCC2)cn1 | -4.97
c1coc(-c2[nH]c3ncccc3c2CN2CCCOCC2)c1 | -4.25
Cc1csc(N2CCN(C(=O)C(C)n3cncn3)CC2)n1 (stereo not given) | 0.112
O=C(NCc1cccnc1-n1cncn1)c1cc(Cl)ccn1 | 12.4
O=C(CN1CCN(CC(O)C2CC2)CC1)NCc1ccccc1Cl (stereo not given) | -10.5
O=C(C1CCC2(CCN(CC3CC3)CC2)O1)N1CCCC1 (stereo not given) | -7.11

* * *

- method: Human HepG2 cell viability assay in 384 well format
- Type: toxicity, cell-based
- Design: dose 125 nL, time 70.5 hour; concentration not given beside the values
- stated-conditions: HepG2 cells, read-out: Inhibition

molecule | cytotoxicity at 70.5 h / %
Cc1cc(C(=O)N2CCC(CCC(=O)NCCN(C)C)CC2)ccc1O | 24.4
Cc1nnc2n1CCN(Cc1c(Cl)ccc3cccnc13)C2 | 26.2
Cn1cc(Cl)cc1C(=O)N1CCCN(Cc2nccn2C)CC1 | -1.83
CC(C)c1noc(C2CCN(S(=O)(=O)c3cccs3)CC2)n1 | -0.463
COCC(C)N(C)C(=O)CCc1c(C)nc2c(C#N)cnn2c1C (stereo unspecified) | 3.69
CC(C)(O)CCc1ccc(C(=O)N2Cc3cnn(CCO)c3C2)cc1 | -11.3
Cc1nc(COC[C@@H]2CC[C@H]3NCC[C@H]3O2)cs1 | 38.8
CCOCC1CN(C(=O)c2cnoc2C)Cc2cn(C)nc21 (stereo unspecified) | -5.33
CN(C)CCNC(=O)c1ccc(OC2CCN(CC3CC3)CC2)c(Cl)c1 | 0.798
CN1CCC(c2n[nH]c(=O)n2CC2CCCCC2)CC1 | -8.59
CCCN(Cc1cccnc1)C(=O)C1CCN(Cc2ccco2)CC1 | -2.7
COCC(=O)N1C[C@H]2CNC[C@@]2(C(=O)NCc2cccc3[nH]ccc23)C1 | -3.16
COC(=O)CCC(=O)N1CCc2nc(C(=O)N3CCOCC3)sc2CC1 | 1.24
NS(=O)(=O)c1ccc(N2CCN(CCCc3cn[nH]c3)CC2)cc1 | 15.8
Cc1noc(C)c1CCC(=O)N[C@@H]1CCC[C@@H](Oc2cccnc2)[C@@H]1O | -3.39
Cc1cnc(C)c(N2CCCC(CO)(Cc3cccc(Cl)c3)C2)n1 (stereo unspecified) | 21.2
Cn1ccnc1COc1ccc(COC(=O)C2CCCO2)cc1 (stereo unspecified) | 3.75
CCC(=O)N1CSCC1C(=O)N(C)CCc1ccccc1 (stereo unspecified) | 7.14
COc1cc(N2C[C@H]3CCC[C@@H](CN(C)C4CC4)[C@H]3C2)ncn1 | -1.7
CN(C)CCN1CCO[C@@H]2CN(C(=O)c3cccs3)CC[C@@H]2C1 | -16.4
Cc1ccccc1CN(C)C(=O)CN1CCCCC1Cn1cncn1 (stereo unspecified) | -7.31

* * *

Catalogue of cytotoxicity at 70.5 h readings, one per entry.
- method: Human HepG2 cell viability assay in 384 well format
- Assay type: toxicity, cell-based
- Parameters: dose 125 nL, time 70.5 hour; concentration not given beside the values
- stated-conditions: HepG2 cells, read-out: Inhibition

compound | cytotoxicity at 70.5 h, %
CC(=O)N1CCc2nnc(C3CCCN3CC3CCCCC3)n2CC1 (stereo unspecified) | -6.06
O=C(N1CCCC1)N1CCC2(CC1)CN(c1cccnc1)C(=O)CO2 | -6.88
O=c1cc(-c2ccccc2)nc2n1CCCCC2 | 23.6
O=C(NCc1ccon1)c1c(F)cc(Br)cc1F | -3.14
Cc1nc(C)n(C2CCCN(C(=O)c3csc(CC(C)C)n3)C2)n1 (stereo unspecified) | -13.9
c1ccc2c(N3CCCCC3Cn3cccn3)ncnc2c1 (stereo unspecified) | -1.4

* * *

- method: Human HepG2 cell viability assay in 384 well format
- Assay type: toxicity, cell-based
- Parameters: dose 125 nL, time 70.5 hour; concentration not given beside the values
- stated-conditions: HepG2 cells, read-out: Inhibition
Catalogue of cytotoxicity at 70.5 h readings, one per entry.

molecule | cytotoxicity at 70.5 h (%)
CC(C#N)CNS(=O)(=O)c1ccc(Br)c(F)c1 (stereo not drawn) | -8.29
CC(C)C1CN(C(=O)c2ccc3nccnc3c2)CCS1 (stereo not drawn) | -7.38
c1ccc(-c2cc(CNCCN3CCCC3)c3nnnn3c2)cc1 | -3.47
Cn1cc(CN2CCc3onc(C(=O)Nc4cccnc4)c3C2)cn1 | -3.27
CN1CCN(CC2CC2)C(=O)C12CCN(C(=O)c1ccnnc1)CC2 | -5.46
Cc1cc(C)n(C2CCN(c3ncnc4c3CCC4)C2)n1 (stereo not drawn) | 12.6
CCC(CC)(CCCNC(=O)c1c(C)noc1C)C1OCCO1 | -5.03
CC(C)(N)C(=O)N1CCC(c2nccnc2Oc2cccc(F)c2)CC1 | -10.4
COc1cc(F)c(S(=O)(=O)Nc2cnc(O)cc2C)cc1OC | -11.9
CCn1cnnc1CNC(=O)N1CCC(O)CC1 | -5.8
COCCN1CCCn2cnc(CN(C)C(C)C)c2C1 | 4.24
Cn1c(CNCC2CCCN2c2cccnn2)nc2ccccc21 (stereo not drawn) | -1.26
COc1ccc(C(=O)N2CC(=O)N(Cc3cccs3)CC(O)C2)cc1 (stereo not drawn) | -2.23
Cc1ccc(-c2nnc(CNC(=O)c3cccnc3)o2)cn1 | -16.3
CSCc1cc(C(=O)NC2(C#N)CC2)ccc1F | -0.691
CCOc1ccccc1C1CCCN1 (stereo not drawn) | 1.15
COc1nn(C)c2c1CCCN(S(=O)(=O)c1cccc(C)c1)C2 | -4.74
O=C(c1ccccn1)N1CCC2(CNS(=O)(=O)c3cnccc3O2)C1 (stereo not drawn) | 17.6
Cc1ccc(F)c2c1CCCN2Cc1cc(=O)n(C)c(=O)n1C | -7.78
CN(C)S(=O)(=O)c1ccc(CN2CCC(C(N)=O)CC2)o1 | -2.97
Cc1cc(=O)[nH]c(-n2nc(C)c(CCC(=O)NCC(C)C)c2C)n1 | -4.48
CC(C)c1ccnc(N[C@H]2COC[C@@H]2N2CCCC2)n1 | -15.2
CN(Cc1ncc[nH]1)S(=O)(=O)c1cccc(C(=O)N2CCOCC2)c1 | -2.7
Cc1c(Cl)cccc1NCc1nc2n(n1)CCCCC2 | -7.61
NC(=O)CN1CCC(NC(=O)c2ccn(-c3cccc(F)c3)n2)CC1 | -3.27
O=C(Nc1ccc(-c2nnc[nH]2)cc1)C1CCN1Cc1ccccc1 (stereo not drawn) | 14.7
Cc1cc(F)cc(S(=O)(=O)NC(=O)CCc2cncc(F)c2)c1 | -4.33
CCNC(=O)NC(c1ccc(C)cc1)c1cccc(S(C)(=O)=O)c1 (stereo not drawn) | -11
Cc1nn(C)c(C)c1CC(C)NC(=O)NCc1ccn(C(C)C)n1 (stereo not drawn) | -5.76
O=C1N(CCCc2ccccc2)CCCC12CCN(C(CO)CO)C2 (stereo not drawn) | -4.16
COCCN(Cc1cnn(C)c1)c1nc(C)nc2sccc12 | 4.75
O=C(Nc1ccc(F)cc1)C1CNCCN1C(=O)CCc1cccnc1 (stereo not drawn) | -5.37
O=C([C@@H]1C[C@@H]2CCN(C3CCOCC3)C[C@@H]2O1)N1CCOCC1 | -7.48
O=C(NCCCn1cncn1)c1ccc(-c2ccco2)[nH]c1=O | -3.92
CC(=O)c1ccc(NC(=O)N(CCN(C)C)Cc2ccc(C)s2)cc1 | 2.42
N#Cc1ccc(CNCC2(c3ccccc3)CCOCC2)cc1 | -12
CN1CCOC(C(=O)Nc2ccc3c(c2)nc(C2CC2)n3C)C1 (stereo not drawn) | -3.17
c1ncc2c(n1)CN(Cc1nc(-c3ccoc3)no1)CC2 | -7.49
